Reference source for all entries: the EternaBench riboswitch data

system: MS2 coat protein; assay: apparent Kd, MS2 coat protein; higher = weaker binding; RNA-MaP array; FMN 200 µM where present; details: designed as: OFF switch for flavin mononucleotide; no ligand
Known apparent Kd of a selection of sequences

Worked cases, apparent Kd given:
>  <CONSTRUCT SEQUENCE>
GUACAGUAGUGAGGAUAUACGAGAUCGAUAGAUCGGCGAUCCAUAUAUACAUGAGGAUCACCCAUGUAGAAGGCACUUCUGUAC

>  <SYSTEM TESTED>
MS2 coat protein

>  <apparent Kd>
7.7 nM

$$$$
>  <CONSTRUCT SEQUENCE>
UAAUAAAACGAUCGGCGGUCCAUACAUGAGGAUCACCCAUGUAGAAGGGACUCUACAAAGUAGAGUCAGGAUAUACAAGAUCGA

>  <SYSTEM TESTED>
MS2 coat protein

>  <apparent Kd>
8.19 nM

$$$$
>  <CONSTRUCT SEQUENCE>
UUUAUGUCAGGAUAUACAUGAGGAUCACCCAUGUAUAUCUUAAAAUAUACAUGGGAAUGUAGAAGGGACCUCCU

>  <SYSTEM TESTED>
MS2 coat protein

>  <apparent Kd>
51 nM

$$$$
>  <CONSTRUCT SEQUENCE>
GCUGGACAAGGAUAUACAAUCGUGCUUCGGCACGUAAGGUCACAUGAGGAUCACCCAUGUAGAAGGUGUCCAGC

>  <SYSTEM TESTED>
MS2 coat protein

>  <apparent Kd>
23.8 nM

$$$$
>  <CONSTRUCT SEQUENCE>
UGCUGGCGAGGAUAUGCUCGGGAUGCUAGUCGCGCGGUUGCACAUGAGGAUCACCCAUGUAGAAGGUGUCUGUG

>  <SYSTEM TESTED>
MS2 coat protein

>  <apparent Kd>
170 nM

$$$$

Supply recorded apparent Kd for UUGCUCAAUUGGGCAGGAACCUCACAUGAGGAUCACCCAUGUCAGGAUAUCCUAGUUUGGACGUAGGAGAAGGGACAGAGUAUC here.
157 nM

Give the reported value of apparent Kd for this record: ACUGGUCGAGGAUAUACGUGACGUGCUUCGGCACGAGGUCUACAUGAGGAUCACCCAUGUAGAAGGCGACCAGU
17 nM

====

tested on: MS2 coat protein; test: apparent Kd, MS2 coat protein; higher = weaker binding; RNA-MaP array; FMN 200 µM where present; conditions: designed as: ON switch for flavin mononucleotide; no ligand
OBSERVATION TYPE: apparent Kd (µM)
The response must be a number in µM with no trailing unit.

Lab note: record apparent Kd of ACAUGAGGAUCACCCAUGUGAACAUAGGAUAUUGGUGAUCAGGCGUGUUAUACAGGAUAUGUCUGCGAGAAGGGUGCACGUUGC tested on MS2 coat protein.
0.676

====

List of apparent Kd values.
system: MS2 coat protein; assay: apparent Kd, MS2 coat protein; higher = weaker binding; RNA-MaP array; FMN 200 µM where present; conditions: ligand present: flavin mononucleotide; designed as: OFF switch for flavin mononucleotide
Units required after the number.

>  <CONSTRUCT SEQUENCE>
CGGUGACGUGUAGGAUAUGGAGGUGGGUUUUGGCCAGAAGGACAUGAGGAUCACCCAUGUGGUAGAGGGUUGGCGGCGGCCCGU

>  <OBSERVATION TYPE>
apparent Kd

>  <MEASUREMENT>
0.0147 µM

$$$$
>  <CONSTRUCT SEQUENCE>
AAUUAUUUAUGAGGAUAUUGUGGUGAAACACCACAAGAAGGCAUGAUACACAUGAGGAUCACCCAUGUGAGCCUGAUGCAUAUA

>  <OBSERVATION TYPE>
apparent Kd

>  <MEASUREMENT>
0.0284 µM

$$$$
>  <CONSTRUCT SEQUENCE>
GUUCUGUUAGGAUAUUGGAAAUCCGUAGCUGUGGCGCGCUUCAAGAAGGAACAUGAGGAUCACCCAUGUGAAAU

>  <OBSERVATION TYPE>
apparent Kd

>  <MEASUREMENT>
0.0254 µM

$$$$

Give recorded apparent Kd. GGAUAGGACAGAGGAUAUACGUGCUAGAGAUACUAGCAAAAUUUCCUCACAUGAGGAUCACCCAUGUAGAAGGCAGUCCUAUCG
0.00733 µM

Given the sequence UACUAUAAGGAGGAUAUCGUAUCGGAAACGAUACGAGAAGGCUUAACAUGAGGAUCACCCAUGUUCUUCAAUAA , write its reported apparent Kd.
0.0183 µM

Provide measured apparent Kd value, entry: UGUUGUUCAGGAUAUGAUGUAUAAUACAUGAGGAUCACCCAUGUGGGUCCUGAUUUGGCGUCAGAAGGGAAUGUUG
0.146 µM

Complete the entry with apparent Kd for AUACGCUGAGGAUAUACCAAAACAACAACCUCGUGUAUAAUACAUGAGGAUCACCCAUGUAGAAGGCAGUAAAC
0.116 µM
